The origin of these recorded values is the supplement of paper PMC3842684.

Assignment: determine reported relative % inhibition for the given compounds.
Tested on: P. falciparum NF54-pfs16-GFP early (I-III) stage gametocytes
method description: relative % inhibition of viable gametocyte number; higher = more gametocytocidal
applied conditions: 5 µM; stage: early (I-III) gametocyte; incubation 72 h
Be sure to follow the number with its unit.

# input Name the reported relative % inhibition value associated with the compound Cc1cc(Nc2ccc(C)c(Cl)c2)n2nc(C(F)(F)F)nc2n1
# output -8.28%

# input Value lookup for relative % inhibition; key = COc1ccc(N2CCN(C(CNC(=O)CC(C)(C)C)c3ccc4c(c3)OCO4)CC2)cc1 (stereo not given)
# output 24.4%

# input Would you mind telling me what relative % inhibition value was observed for CCN(CC)S(=O)(=O)c1ccc(-c2csc(Nc3ccc(C)c(C)c3)n2)cc1 ?
# output 31.5%

# input // query relative % inhibition value for entry CC(=O)c1ccc(NC(=O)CSc2nc(-c3ccccc3Cl)ns2)cc1
# output 39.1%

# input Name the reported relative % inhibition value associated with the compound COc1ccc2nc(C)cc(Nc3ccc(Cl)cc3)c2c1
# output 13.9%

# input Request the reported relative % inhibition associated with COC(=O)c1ccc(C2C3=C(O)CC(c4ccc(F)cc4)CC3=Nc3ccccc3N2C(=O)c2ccccc2)cc1 (stereo not given)
# output 103%

# input Reported relative % inhibition, compound Cc1ccccc1OCCSc1nc2ccc(NC(=O)c3cccs3)cc2s1 : ____
# output 19.4%

# input What does the record list as relative % inhibition for Oc1c(CN2CCN(c3ccccc3F)CC2)cc(Br)c2cccnc12 ?
# output 89.8%

# input Please look up its relative % inhibition: CCN(CC)CCNc1ccnc2cc3ccccc3cc12
# output 100%

# input relative % inhibition for CCCCCCc1cc2cc(-c3csc(C=Cc4ccccc4)n3)c(=O)oc2cc1O ?
# output 101%

###

Test system: P. falciparum NF54-pfs16-GFP early (I-III) stage gametocytes
method description: relative % inhibition of viable gametocyte number; higher = more gametocytocidal
applied conditions: 5 µM; stage: early (I-III) gametocyte; incubation 72 h
Answer each item with its documented relative % inhibition.
Mention the unit after the number when you answer.

# input Using the record for c1ccc2cc3c(Nc4ccc(N5CCOCC5)cc4)ccnc3cc2c1 , report its relative % inhibition.
# output 12.3%

# input Bench note: what relative % inhibition did Nc1ccc(-c2nc3cc(Oc4ccc(Oc5ccc6[nH]c(-c7ccc(N)cc7)nc6c5)cc4)ccc3[nH]2)cc1 show?
# output 98%

# input Fill in the blank: the reported relative % inhibition of c1ccc(CNc2nc(Nc3ccccc3)nc3ccccc23)cc1 is ____.
# output 97%

# input Fill blank: measured relative % inhibition of the molecule O=C(NC1CCN(Cc2ccccc2)CC1)c1cc(-c2cccnc2)nc2ccc(Cl)cc12 is ____.
# output 46.2%

# input // query relative % inhibition value for entry CSc1ccccc1C(=O)Nc1nc(-c2ccccn2)cs1
# output 92.9%

# input Which relative % inhibition value is on record for CC(C)(C)C(=O)Nc1ccc(C(=O)Nc2cccc(-c3nc4ccccc4[nH]3)c2)cc1 ?
# output 15.3%

# input Given the molecule CCN(CC)CCNc1ccnc2cc(Cl)ccc12 , what is its reported relative % inhibition?
# output 100%

# input What measured relative % inhibition goes with CCOC(=O)c1c(NC(=O)c2ccccc2)sc2c(O)c(CN(CC)CC)ccc12 ?
# output 94.9%

# input Which relative % inhibition reading was recorded for the molecule Cc1c(C)n(Cc2ccc(F)cc2)c2ccc(C(=O)NCc3ccco3)cc12 ?
# output -8.91%

# input Any idea what its relative % inhibition is? The molecule is COc1ccc(-c2cn3c(C(=O)Nc4ccccc4Cl)c(-c4ccccc4)c4c3n2CCCC4)cc1
# output 30.9%
